Biological target: SALL4 ZFC4 G921D (HT-SELEX) (Mus musculus, UniProt Q8BX22 870-940, G921D)
Sequence: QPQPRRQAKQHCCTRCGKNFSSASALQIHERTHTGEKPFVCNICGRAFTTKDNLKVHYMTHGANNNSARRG
Experiment: HT-SELEX; high values mean tight binding
Settings: protein: recombinant; vector His6-GST; dsDNA, one strand shown
Binarize binding signal at 0.6 fold-change vs cycle 0; below is Y, at or above is N.

ITEM SEQUENCE: AGTGTA
ASSIGNED LABEL: N

ITEM SEQUENCE: GGTCGA
ASSIGNED LABEL: Y

ITEM SEQUENCE: CTTAAC
ASSIGNED LABEL: N

ITEM SEQUENCE: AGTGCG
ASSIGNED LABEL: Y

ITEM SEQUENCE: AAGGGC
ASSIGNED LABEL: Y

ITEM SEQUENCE: TAGTCA
ASSIGNED LABEL: N

ITEM SEQUENCE: AGTATG
ASSIGNED LABEL: N

ITEM SEQUENCE: CGACAG
ASSIGNED LABEL: Y

ITEM SEQUENCE: ACCTAA
ASSIGNED LABEL: N

ITEM SEQUENCE: AAGGGA
ASSIGNED LABEL: N

ITEM SEQUENCE: AAAATG
ASSIGNED LABEL: N

ITEM SEQUENCE: TAAGGA
ASSIGNED LABEL: N

ITEM SEQUENCE: CGGATA
ASSIGNED LABEL: N

ITEM SEQUENCE: AGAACA
ASSIGNED LABEL: N

ITEM SEQUENCE: CGTCAC
ASSIGNED LABEL: Y

ITEM SEQUENCE: AATTCG
ASSIGNED LABEL: N

ITEM SEQUENCE: AGTCAA
ASSIGNED LABEL: N

ITEM SEQUENCE: CGCTGC
ASSIGNED LABEL: Y

ITEM SEQUENCE: ATGATC
ASSIGNED LABEL: N

ITEM SEQUENCE: CAAACG
ASSIGNED LABEL: N

ITEM SEQUENCE: CCCGCA
ASSIGNED LABEL: Y

ITEM SEQUENCE: AGGTTC
ASSIGNED LABEL: N
